# maps each entry to its cAMP production (as % of α-MSH)
target: melanocortin-1 receptor (MC-1r) on murine melanocytes (line S91 Cloudman) (murine) (UniProt Q01727); assay: cell-based or functional assay
Sequence (Q01727 whole entry): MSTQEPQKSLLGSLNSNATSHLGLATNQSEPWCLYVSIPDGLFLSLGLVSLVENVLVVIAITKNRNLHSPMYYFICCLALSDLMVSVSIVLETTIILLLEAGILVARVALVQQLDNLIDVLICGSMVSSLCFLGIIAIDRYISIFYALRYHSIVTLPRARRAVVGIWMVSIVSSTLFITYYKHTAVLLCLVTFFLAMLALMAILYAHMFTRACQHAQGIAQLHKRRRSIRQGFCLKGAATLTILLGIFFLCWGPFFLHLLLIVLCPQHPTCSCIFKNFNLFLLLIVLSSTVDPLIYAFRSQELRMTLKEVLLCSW
[ ]: non-standard residue; d: D form. d(hPhe) = N[C@H](CCc1ccccc1)C(=O)O; Nle = CCCC[C@H](N)C(=O)O

Asked: Please list cAMP production (as % of α-MSH) recorded for the binder Ac-[Nle]AH[dF]KW-NH2 (SMILES CCCC[C@H](NC(C)=O)C(=O)N[C@@H](C)C(=O)N[C@@H](Cc1c[nH]cn1)C(=O)N[C@H](Cc1ccccc1)C(=O)N[C@@H](CCCCN)C(=O)N[C@@H](Cc1c[nH]c2ccccc12)C(N)=O) [Compound No. 2 in the Table, Ac-Nle-Ala-His-DPhe-Lys-Trp-NH2]
Given back: 40 % of α-MSH

Asked: Please list cAMP production (as % of α-MSH) recorded for the binder Ac-[Nle]AH[d(hPhe)]RW-NH2 [Compound No. 14 in the Table, Ac-Nle-Ala-His-DHomoPhe-Arg-Trp-NH2]
Given back: 45 % of α-MSH

Asked: Please list cAMP production (as % of α-MSH) recorded for the binder Ac-[Nle]AH[dF]RW-NH2 [Compound No. 1 in the Table, Ac-Nle-Ala-His-DPhe-Arg-Trp-NH2]
Given back: 80 % of α-MSH
